Cited source: ChEMBL document CHEMBL5352382

Test: Antiproliferative activity against human MP41 cells assessed as reduction in cell viability measured after 72 hrs by CCK-8 method
Format: functional, cell-based
Conditions: MP41, 72 h

>  <compound structure>
CC[C@H](C)[C@H](N)C(=O)N1CCn2cc(-c3ccc4ccccc4c3)nc2[C@@H]1CC1CCCCC1

>  <unit abbreviation>
µM

>  <IC50>
15.5

$$$$
>  <compound structure>
CC[C@H](C)[C@H](N)C(=O)N1CCn2cc(-c3ccccc3Cl)nc2[C@@H]1CC1CCCCC1

>  <unit abbreviation>
µM

>  <IC50>
11.6

$$$$
>  <compound structure>
CC[C@H](C)[C@H](N)C(=O)N1CCn2cc(-c3cc(Cl)cc(Cl)c3)nc2[C@@H]1CC1CCCCC1

>  <unit abbreviation>
µM

>  <IC50>
10.9

$$$$
>  <compound structure>
CC[C@H](C)[C@H](N)C(=O)N1CCn2cc(-c3ccc(Cl)cc3)nc2[C@@H]1CC1CCCCC1

>  <unit abbreviation>
µM

>  <IC50>
10.1

$$$$
>  <compound structure>
CC[C@H](C)[C@H](N)C(=O)N1CCn2cc(-c3cccc(Cl)c3Cl)nc2[C@@H]1CC1CCCCC1

>  <unit abbreviation>
µM

>  <IC50>
9.2

$$$$
